Data origin: PubChem BioAssay (NCI)

Hi there, I'd appreciate the recorded growth for every entry that follows.
Test system: MDA-MB-231 breast
Test: NCI-60 one-dose screen, 48 h (100 = growth as untreated, 0 = no growth, -100 = all killed)
Condition Details: 10 µM
Compounds without any hit were thinned out: in the full panel of roughly 83,000, 20% have a hit.
Numbers only, in %.

Here are 4 compounds together with their reported answers.
# Compound, growth / %
data = [
    ("COC(=O)c1c(C)nc(Nc2nc3ccccc3s2)nc1-c1ccc(Cl)cc1Cl", 99.1),
    ("O=C(Nc1cccc(-c2nc3ccccc3[nH]2)c1)c1cccc(NC(=O)c2ccco2)c1", 34.6),
    ("COc1ccc(-c2nc(-c3ccccc3)c(-c3ccccc3)[nH]2)cc1OC1CCCC1", 18.7),
    ("NC(=O)C1CCCN(Cc2c[nH]c3ccccc23)C1 (stereo not drawn)", 99.8),
]

Go through the items and report each one's growth.
1. C=CCNCCCN1C(=O)c2ccc3c4c(ccc(c24)C1=O)C(=O)N(CCCNCC=C)C3=O
2. N#CN1CC[C@H](C(=O)Nc2ncc(-c3ccncc3)s2)C1
3. COc1ccc(-c2csc(-c3cc(Cl)cc(Cl)c3Cl)n2)cc1
4. COc1ccc(-c2nc(-c3nc4ccc(OC)cc4[nH]3)c3ccccn23)cc1

Output line:
[1.35, 2.16, 73.6, 83]

----------
System: MALME-3M melanoma
Test: NCI-60 one-dose screen, 48 h (100 = growth as untreated, 0 = no growth, -100 = all killed)
Condition Details: 10 µM
The panel holds about 83,000 compounds, 20% with a hit somewhere; the sample as a whole holds those more often.
Provide the reported growth of each item.
Numbers only, in %.

Previously resolved entries follow.
# Compound, Tested Target, Unit Info, growth
records = [
    ("O=C(Nc1ccc(OS(=O)(=O)Cc2ccccc2)cc1)C12CC3CC(CC(C3)C1)C2", "MALME-3M melanoma", "%", 91.8),
    ("CCn1nc(-c2ccc(C(=O)OC)cc2)nc2c(=O)n(C)c(=O)nc1-2", "MALME-3M melanoma", "%", 29.1),
]

State the recorded growth for every item in the following list.
1. C/C=C\COc1cc(C)c(Cl)cc1Cl
2. COc1ccc(-c2nnc(COc3ccc(NC(=O)Nc4cccc(C(F)(F)F)c4)cc3F)o2)cc1
3. Nc1nc2c(ncn2C2OC3COP(=O)(O)OC4C(COP(=O)(O)OC2C3O)OC(n2cnc3c(N)ncnc32)C4O)c(=O)[nH]1 (configuration not stated)
4. CC(Oc1ccc(Cl)cc1)c1ccccc1 (configuration not stated)

Output line:
1. 95.9
2. 60.5
3. 106
4. 80.1

----------
Test system: A549/ATCC NSCLC
Test: NCI-60 one-dose screen, 48 h
Condition Details: 10 µM
Method: Growth inhibition of the A549/ATCC human Non-Small Cell Lung tumor cell line is measured as a screen for anti-cancer activity. Cells are grown in 96 well plates and exposed to the test compound for 48 hours. Compounds are tested at a single concentration, which is 10^-5 M for most compounds. The reported endpoint is percent growth (GI% or GIPRCNT), where numbers from 0 - 100% represent growth inhibition, and numbers from -100% - 0 represent cell death. […]
Compounds without any hit were thinned out: in the full panel of roughly 83,000, 20% have a hit. The source made the active and inactive calls. Rule for the calls: active = growth percent below 10; inactive = the rest.
Select the correct class. Options are active, inactive and nothing else.

# Compound, Class
records = [
    ("O=c1c2cccc3c(Nc4ccc(Br)cn4)ccc(c32)c2nc3ccccc3n12", "inactive"),
    ("CCCCCCCC/C=C/CCCCCCCCC1=NCCN1CCO", "inactive"),
    ("CCCCCCCOc1cccc(/C=C2/C(=O)N=C3SCCCN32)c1", "inactive"),
    ("COc1ccc(C(=O)c2sc3nc(-c4cccs4)ccc3c2N)cc1OC", "inactive"),
    ("COc1ccc(-c2nsc3c2NC(=O)CC3c2cccc(Cl)c2)cc1 (stereo not given)", "inactive"),
]

Input line: Record lookup: outcome of this test for "COc1cc(-c2cc(/C=C/C(C)=O)[nH]n2)cc(OC)c1OC" ?
Output line: inactive

Input line: What did this assay record as the result for "O=C1/C(=C/c2ccc([N+](=O)[O-])s2)Oc2ccc(Cl)cc21" ?
Output line: active

Input line: Any idea what this test logged for NC1CCC(Nc2nc(NCc3ccc(-c4ccco4)nc3)c3ncn(C4CCCC4)c3n2)CC1 (stereo not given) ?
Output line: active

Input line: Which outcome was entered for the compound "C=CCN1C(=O)/C(=C\c2ccc3c(c2)CCC3)SC1=S" in this test?
Output line: inactive

Input line: Hey, what did the test say about "COc1ccccc1S(=O)(=O)Nc1ccc2c(c1)CN(C)C(=O)N2" ?
Output line: inactive

----------
I'd appreciate it if you could supply growth values for the items below.
System: HT29 colon
Test: NCI-60 one-dose screen, 48 h (100 = growth as untreated, 0 = no growth, -100 = all killed)
Condition Details: 10 µM
This is part of a sample that, as a whole, favours compounds with a hit. Of some 83,000 tested, about 20% had one in any assay.
Answers are plain numbers, in %.

Worked set:
# Compound, growth, %
rows = [
    ("O=S(=O)(NC1c2ccccc2Oc2ccccc21)c1cc(Cl)ccc1Cl", 91.4),
    ("CC(=O)Oc1c(C)c(C)c2c(c1C)CCC(C)(CC(=O)OCCCCCCCCCCC[P+](c1ccccc1)(c1ccccc1)c1ccccc1)O2 (stereo not given)", -53.9),
    ("COc1ccc2c(c1)/C(=C/c1cc(OC)c(OC)c(OC)c1)C(=O)N2C", 11.8),
    ("COc1cc(-c2cc(-c3ccc(C)cc3)nc3nc(N)[nH]c(=O)c23)ccc1Oc1ccnc2cc(Cl)ccc12", 84.6),
]

Would you kindly look at the next entry?
Input line: Return growth for the following compound: "N=C(N)c1ccc(-c2ccc(-c3ccccc3)s2)cc1F"
Output line: -89.8

----------
System: A549/ATCC NSCLC
Test: NCI-60 one-dose screen, 48 h (100 = growth as untreated, 0 = no growth, -100 = all killed)
Condition Details: 10 µM
This is part of a sample that, as a whole, favours compounds with a hit. Of some 83,000 tested, about 20% had one in any assay.
Think of 80% as a floor: if growth stands on it or above, it is Fulfilled; beneath it, Not fulfilled.

# Compound, Class
measured = [
    ("COc1cc(/C=C/C(=O)c2cc(-c3ccccc3)ccc2O)cc(OC)c1OC", "Fulfilled"),
    ("COc1ccc(-c2cc(/C=C3\\C(=O)Nc4cc(Cl)ccc43)[nH]n2)cc1", "Not fulfilled"),
    ("O=C(NNC(=O)c1ccncc1)Nc1ccc([N+](=O)[O-])cc1", "Fulfilled"),
    ("COc1ccc(/C(CS(=O)(=O)c2ccccc2)=N\\O)cc1", "Fulfilled"),
]

Input line: Could you verify whether the entry Cc1cc(O)c(C2=NN(c3ccc(S(N)(=O)=O)cc3)C(c3ccc(N(C)C)cc3)C2)c(C)c1Cl (stereo unspecified) shows growth of no less than 80%?
Output line: Not fulfilled

----------
Test system: NCI-H322M lung
Test: NCI-60 one-dose screen, 48 h
Condition Details: 10 µM
About 83,000 compounds went through this panel and 20% of them were active in at least one assay; those are over-represented in the sample as a whole. Active and inactive are the calls of the source. The calls were made as follows: active = growth percent below 10; inactive = the rest.
Form entry, call: pick from True (active), False (inactive)

# Molecule, Class
data = [
    ("COc1cc(Cn2c(-c3ccccc3)c(Cl)c3c2-c2oncc2CC3)cc(OC)c1", "False"),
    ("CCc1ccc(-c2nnc(COc3ccc(-c4nc5ccc(C)cc5[nH]4)cc3OC)o2)cc1", "False"),
    ("COc1ccc(C(=O)/C=C/c2cc(-c3ccc(OC)c(OC)c3)n[nH]2)cc1OC", "True"),
    ("N=C(N)c1ccc(-c2ccc(-c3ccccc3)s2)cc1F", "True"),
    ("CCn1nc(-c2ccc(C(=O)OC)cc2)nc2c(=O)n(C)c(=O)nc1-2", "False"),
]

Input line: Tell me the assay call for "CCc1cc2n(n1)-c1ncc(C(=O)OC)cc1Oc1ccccc1-2" please.
Output line: False

Input line: Which outcome did this test record for the molecule "COc1cc(Nc2ccnc(N3CCN(c4ccnc5cc(Cl)ccc45)CC3)n2)cc(OC)c1" ?
Output line: False

Input line: Outcome logged for COc1ccc(C2CC(c3ccc(-c4ccccc4)cc3)=NN2c2ccc(S(N)(=O)=O)cc2)cc1 (centres undefined) in this assay:
Output line: False

Input line: Answer briefly: the call reported for "O=C(O)c1ccccc1C(=O)c1cccc2c(F)cccc12" in this assay.
Output line: False

----------
Test system: A498 renal
Test: NCI-60 one-dose screen, 48 h (100 = growth as untreated, 0 = no growth, -100 = all killed)
Condition Details: 10 µM
Compounds without any hit were thinned out: in the full panel of roughly 83,000, 20% have a hit.
Measured Metric: growth (%)
Give bare numbers, in %.

Need growth for each of these compounds.
1. O=C(c1ccc(Cl)cc1)c1no[n+]([O-])c1C(=O)c1ccc(Cl)cc1
2. O=S(=O)(O)C1(O)CCCCC1

Output line:
1. 106
2. 112

Please look at the items below and tell me growth for each one, in order.
1. COc1c(C)c(C)c(OC)c2c1[nH]c(=O)c1c3cccnc3cn21
2. CCCCCCCCCCCCCCCC(=O)N1CCN(C)CC1
3. Oc1cc(O)c(Br)cc1Br
4. CCOC(=O)c1sc(NC(=O)c2cc(OC)c(OC)c(OC)c2)nc1C
5. COC(=O)[C@]12CC[C@@H](C)[C@H](C)[C@@H]1C1=CC[C@@H]3[C@@]4(C)C[C@@H](O)[C@H](O)[C@@](C)(CO)[C@@H]4[C@H](O)C[C@@]3(C)[C@]1(C)CC2
6. COc1ccc(C2C=C(c3ccc(Cl)cc3)N=C3SC=CN32)c(Br)c1 (stereo not given)
7. COc1ccc2nc(C)cc(Nc3ccc(Cl)cc3)c2c1

Output line:
120
92.3
96.7
88.8
-80.2
89.7
103

Give growth for each listed item.
1. N#CN1CC[C@H](C(=O)Nc2ncc(-c3ccncc3)s2)C1
2. CCOc1nc(-c2ccccc2)cc2c(O)c(C(=O)NCCCO)[nH]c(=O)c12

Output line:
[-49.4, 93.5]
